targetOrTestSystem: mouse BLyS protein (mouse, UniProt Q9WU72 69-309)
Sequence (Q9WU72 69-309): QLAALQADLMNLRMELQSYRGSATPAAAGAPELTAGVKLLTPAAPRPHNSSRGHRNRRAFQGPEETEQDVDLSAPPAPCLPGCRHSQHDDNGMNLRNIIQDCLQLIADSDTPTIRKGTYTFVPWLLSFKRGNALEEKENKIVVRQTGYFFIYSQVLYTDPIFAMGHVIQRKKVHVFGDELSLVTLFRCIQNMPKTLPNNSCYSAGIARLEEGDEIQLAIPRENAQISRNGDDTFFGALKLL
assayProcedure: cell-based or functional assay
# Lookup of reported mouse B lymphocyte proliferation (OD450 nm), antibody 4 nM keyed by entry
The reply must contain the numeric value and, after it, the unit.

Some binders with recorded mouse B lymphocyte proliferation (OD450 nm), antibody 4 nM:
binder="8E7D9C7F5 (antibody, V domains shown, Mouse hybridoma monoclonal antibody purified on Protein G) VH: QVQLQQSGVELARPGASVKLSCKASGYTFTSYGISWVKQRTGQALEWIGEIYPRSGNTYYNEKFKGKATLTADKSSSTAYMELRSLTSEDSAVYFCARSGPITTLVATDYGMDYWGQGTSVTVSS VL: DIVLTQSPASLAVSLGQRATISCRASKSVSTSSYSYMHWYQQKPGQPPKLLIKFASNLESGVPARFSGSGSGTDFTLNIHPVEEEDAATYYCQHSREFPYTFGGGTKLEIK" observed="2440 OD450 nm"
binder="35E6F7C3 (antibody, V domains shown, Mouse hybridoma monoclonal antibody purified on Protein G) VH: EVQLQQSGAELVKPGASVKLSCTAAGFNIQDTYIHWVKQRPEQGLEWIGRIDPANANTVYDPKFQGKATITADTSSNTAYLQVSSLTSEDTAVYYCASPVITAGFAYWGQGTLVTVSA VL: QIVLTQSPAIMSASPGEKVTMTCGASSSVNYVHWYQQKSGTSPKRWIYDTSKLASGVPARFSGSGSGTSYSLTISSMEAEDAATYYCQQWTRSPLTFGAGTKVELK" observed="2520 OD450 nm"

Request the reported mouse B lymphocyte proliferation (OD450 nm), antibody 4 nM associated with 89A2G5E7 (antibody, V domains shown, Mouse hybridoma monoclonal antibody purified on Protein G) VH: QVQLKESGPGLVAPSQSLSITCTVSGLSLNSHDISWIRQPPGKGLEWLGVIWSGGGTKYNSAFMSRLSISKDNSKSQVFLKMNSLHTDDTAIYYCVRTPSMITYSAMDYWGQGTSVTVSS VL: EIVLTQSPALMAASPGEKVTITCSVSSSISSRNLHWYQQKSQTSPKAWIHATSNLASGVPVRFSGSGSGTSYSLTISSMEAEDAATYYCQQWSSYPLTFGSGTKLEIK
2480 OD450 nm
